# Protocol Description: The drug is tested on Bifidobacterium ruminantium strain: fecal isolate for biotransformation. The drug concentrations were measured before and after a 12-h incubation by liquid-chromatography-coupled mass spectrometry (LC–MS)
# Recorded Conditions: 2 µM

>  <Compound>
CCCCCCOC(=O)/N=C(/N)c1ccc(NCc2nc3cc(C(=O)N(CCC(=O)OCC)c4ccccn4)ccc3n2C)cc1.CS(=O)(=O)O [DABIGATRAN ETEXILATE MESYLATE]

>  <Bacterial Biotransformation>
Compound NOT metabolized

$$$$
>  <Compound>
COC(=O)C(c1ccccc1)C1CCCCN1 (stereo unspecified) [METHYLPHENIDATE]

>  <Bacterial Biotransformation>
Compound metabolized

$$$$
>  <Compound>
Br.CN(C)CCCC1(c2ccc(F)cc2)OCc2cc(C#N)ccc21 (stereo unspecified) [CITALOPRAM HYDROBROMIDE]

>  <Bacterial Biotransformation>
Compound NOT metabolized

$$$$
>  <Compound>
CC(=O)O[C@H]1C(=O)[C@@]2(C)[C@H]([C@H](OC(=O)c3ccccc3)[C@]3(O)C[C@H](OC(=O)[C@H](O)[C@@H](NC(=O)c4ccccc4)c4ccccc4)C(C)=C1C3(C)C)[C@]1(OC(C)=O)CO[C@@H]1C[C@@H]2O

>  <Bacterial Biotransformation>
Compound NOT metabolized

$$$$
>  <Compound>
CCCCC1=NC2(CCCC2)C(=O)N1Cc1ccc(-c2ccccc2-c2nnn[nH]2)cc1

>  <Bacterial Biotransformation>
Compound metabolized

$$$$
>  <Compound>
COc1ccc(CN2CCNCC2)c(OC)c1OC.Cl.Cl [TRIMETAZIDINE DIHYDROCHLORIDE]

>  <Bacterial Biotransformation>
Compound NOT metabolized

$$$$
>  <Compound>
NC(CO)(CO)CO.O=C(c1ccccc1)c1ccc2n1CCC2C(=O)O (stereo unspecified)

>  <Bacterial Biotransformation>
Compound NOT metabolized

$$$$
>  <Compound>
O=C(Nc1ccccc1)OCC(CN1CCCCC1)OC(=O)Nc1ccccc1 (stereo unspecified)

>  <Bacterial Biotransformation>
Compound NOT metabolized

$$$$
>  <Compound>
CN1CCc2c(c3ccccc3n2Cc2ccccc2)C1.CN1CCc2c(c3ccccc3n2Cc2ccccc2)C1.O=S(=O)(O)c1cccc2c(S(=O)(=O)O)cccc12

>  <Bacterial Biotransformation>
Compound NOT metabolized

$$$$
>  <Compound>
CCCC(=O)Nc1ccc(OCC(O)CNC(C)C)c(C(C)=O)c1 (stereo unspecified)

>  <Bacterial Biotransformation>
Compound NOT metabolized

$$$$
>  <Compound>
Cc1nc(-c2ccc(OCC(C)C)c(C#N)c2)sc1C(=O)O

>  <Bacterial Biotransformation>
Compound NOT metabolized

$$$$
>  <Compound>
OC(CCN1CCCCC1)(c1ccccc1)C1CCCCC1 (stereo unspecified)

>  <Bacterial Biotransformation>
Compound metabolized

$$$$
>  <Compound>
Cc1ccc(NC(=O)c2ccc(CN3CCN(C)CC3)cc2)cc1Nc1nccc(-c2cccnc2)n1

>  <Bacterial Biotransformation>
Compound NOT metabolized

$$$$
>  <Compound>
CCc1oc2ccccc2c1C(=O)c1cc(Br)c(O)c(Br)c1

>  <Bacterial Biotransformation>
Compound NOT metabolized

$$$$
>  <Compound>
COc1ccc2[nH]c([S+]([O-])Cc3ncc(C)c(OC)c3C)nc2c1 (stereo unspecified)

>  <Bacterial Biotransformation>
Compound metabolized

$$$$
>  <Compound>
COc1ccc2[nH]c([S+]([O-])Cc3ncc(C)c(OC)c3C)nc2n1 (stereo unspecified)

>  <Bacterial Biotransformation>
Compound metabolized

$$$$

----------
# Recorded Conditions: akkermansia muciniphila, 12 h, 2 µM
# Description: The drug is tested on Akkermansia muciniphila strain: ATCC BAA-835 for biotransformation. The drug concentrations were measured before and after a 12-h incubation by liquid-chromatography-coupled mass spectrometry (LC–MS)
Recorded Metric: Bacterial Biotransformation

>  <Compound>
CN1CCc2c(c3ccccc3n2Cc2ccccc2)C1.CN1CCc2c(c3ccccc3n2Cc2ccccc2)C1.O=S(=O)(O)c1cccc2c(S(=O)(=O)O)cccc12

>  <Assay Value>
Compound NOT metabolized

$$$$
>  <Compound>
CCOC(=O)[C@H](CCc1ccccc1)N[C@@H](C)C(=O)N1CCC[C@H]1C(=O)O.O=C(O)/C=C\C(=O)O [ENALAPRIL MALEATE]

>  <Assay Value>
Compound NOT metabolized

$$$$
>  <Compound>
CC1Cc2ccccc2N1NC(=O)c1ccc(Cl)c(S(N)(=O)=O)c1 (centres undefined) [INDAPAMIDE]

>  <Assay Value>
Compound NOT metabolized

$$$$

----------
# Protocol Description: The drug is tested on Ruminococcus lactaris strain: ATCC29176 for biotransformation. The drug concentrations were measured before and after a 12-h incubation by liquid-chromatography-coupled mass spectrometry (LC–MS)
# Recorded Conditions: 2 µM
Recorded Metric: Bacterial Biotransformation

>  <Molecule>
COc1ccc(/C=C/C(=O)Nc2ccccc2C(=O)O)cc1OC

>  <Assay Value>
Compound NOT metabolized

$$$$
>  <Molecule>
c1ccc2[nH]c(-c3cscn3)nc2c1

>  <Assay Value>
Compound NOT metabolized

$$$$
>  <Molecule>
CC[C@H](C)C(=O)O[C@H]1CCC=C2C=C[C@H](C)[C@H](CC[C@@H]3C[C@@H](O)CC(=O)O3)[C@H]21

>  <Assay Value>
Compound metabolized

$$$$
>  <Molecule>
CCOC(=O)[C@H](CCc1ccccc1)N[C@@H](C)C(=O)N1Cc2ccccc2C[C@H]1C(=O)O

>  <Assay Value>
Compound NOT metabolized

$$$$
>  <Molecule>
C[C@@H](CO)NC(=O)[C@@H]1C=C2c3cccc4[nH]cc(c34)C[C@H]2N(C)C1.O=C(O)/C=C\C(=O)O [ERGONOVINE MALEATE]

>  <Assay Value>
Compound metabolized

$$$$
>  <Molecule>
CCN(CC)CCOC(=O)C1(C2CCCCC2)CCCCC1

>  <Assay Value>
Compound NOT metabolized

$$$$
>  <Molecule>
Clc1cccc(Cl)c1N=C1NCCN1

>  <Assay Value>
Compound NOT metabolized

$$$$
>  <Molecule>
CC(=O)SCC(Cc1ccccc1)C(=O)NCC(=O)OCc1ccccc1 (centres undefined)

>  <Assay Value>
Compound metabolized

$$$$
>  <Molecule>
CN1[C@@H]2CC[C@H]1C[C@@H](OC(=O)c1c[nH]c3ccccc13)C2

>  <Assay Value>
Compound NOT metabolized

$$$$

----------
# Protocol Description: The drug is tested on Bacteroides coprophilus strain: DSM18228 for biotransformation. The drug concentrations were measured before and after a 12-h incubation by liquid-chromatography-coupled mass spectrometry (LC–MS)
# Recorded Conditions: 2 µM
Recorded Metric: Bacterial Biotransformation

>  <Compound>
C#C[C@]1(O)CC[C@H]2[C@@H]3CCC4=Cc5oncc5C[C@]4(C)[C@H]3CC[C@@]21C [DANAZOL]

>  <Assay Value>
Compound NOT metabolized

$$$$
>  <Compound>
CNNCc1ccc(C(=O)NC(C)C)cc1 [PROCARBAZINE]

>  <Assay Value>
Compound NOT metabolized

$$$$
>  <Compound>
COc1ccc2c(c1OC)C(=O)O[C@@H]2[C@H]1c2c(cc3c(c2OC)OCO3)CCN1C [NOSCAPINE]

>  <Assay Value>
Compound metabolized

$$$$
>  <Compound>
COc1cc(C(=O)NCc2ccc(OCCN(C)C)cc2)cc(OC)c1OC [TRIMETHOBENZAMIDE]

>  <Assay Value>
Compound NOT metabolized

$$$$
>  <Compound>
CCOC(=O)[C@H](CCc1ccccc1)N[C@H]1CCc2ccccc2N(CC(=O)O)C1=O [BENAZEPRIL]

>  <Assay Value>
Compound metabolized

$$$$
>  <Compound>
CCN(CC)CCNC(C(=O)OCCC(C)C)c1ccccc1.Cl.Cl (stereo not given)

>  <Assay Value>
Compound NOT metabolized

$$$$
>  <Compound>
O=P(O)(O)O.c1ccc(CN(CC2=NCCN2)c2ccccc2)cc1 [ANTAZOLINE PHOSPHATE]

>  <Assay Value>
Compound NOT metabolized

$$$$
>  <Compound>
CC(C)c1c(CN(C)C(C)Cc2ccccc2)n(C)n(-c2ccccc2)c1=O (stereo not given) [FAMPROFAZONE]

>  <Assay Value>
Compound metabolized

$$$$
>  <Compound>
Br.COc1ccc2c(c1)[C@]13CCCC[C@@H]1[C@H](C2)N(C)CC3.O [DEXTROMETHORPHAN HYDROBROMIDE]

>  <Assay Value>
Compound NOT metabolized

$$$$
>  <Compound>
CC(=O)O[C@]1(C(C)=O)CC[C@H]2[C@@H]3C=C(Cl)C4=CC(=O)[C@@H]5C[C@@H]5[C@]4(C)[C@H]3CC[C@@]21C [CYPROTERONE ACETATE]

>  <Assay Value>
Compound metabolized

$$$$
>  <Compound>
O=C(NC(Cc1cc(=O)[nH]c2ccccc12)C(=O)O)c1ccc(Cl)cc1 (stereo not given) [REBAMIPIDE]

>  <Assay Value>
Compound NOT metabolized

$$$$
>  <Compound>
CS(=O)(=O)O.OC(CCN1CCCCC1)(c1ccccc1)c1ccccc1 [PRIDINOL METHANESULFONATE]

>  <Assay Value>
Compound NOT metabolized

$$$$
>  <Compound>
CCC(COC(=O)c1cc(OC)c(OC)c(OC)c1)(c1ccccc1)N(C)C.O=C(O)/C=C\C(=O)O (stereo not given)

>  <Assay Value>
Compound metabolized

$$$$
>  <Compound>
CC(=O)Oc1ccc(C(c2ccc(OC(C)=O)cc2)c2ccccn2)cc1 [BISACODYL]

>  <Assay Value>
Compound metabolized

$$$$
>  <Compound>
Cc1cc2c(s1)Nc1ccccc1N=C2N1CCN(C)CC1 [OLANZAPINE]

>  <Assay Value>
Compound metabolized

$$$$
>  <Compound>
COc1ccc2c(c1)c(CC(=O)O)c(C)n2C(=O)c1ccc(Cl)cc1 [INDOMETHACIN]

>  <Assay Value>
Compound metabolized

$$$$
>  <Compound>
Nc1ccc(/N=N/c2ccccc2)c(N)n1 [PHENAZOPYRIDINE]

>  <Assay Value>
Compound NOT metabolized

$$$$
>  <Compound>
COc1ccc(/C=C/C(=O)Nc2ccccc2C(=O)O)cc1OC

>  <Assay Value>
Compound NOT metabolized

$$$$
>  <Compound>
CCC(C)n1ncn(-c2ccc(N3CCN(c4ccc(OCC5COC(Cn6cncn6)(c6ccc(Cl)cc6Cl)O5)cc4)CC3)cc2)c1=O (stereo not given) [ITRACONAZOLE]

>  <Assay Value>
Compound NOT metabolized

$$$$
>  <Compound>
CC(=O)OCC(CCn1cnc2cnc(N)nc21)COC(C)=O [FAMCICLOVIR]

>  <Assay Value>
Compound metabolized

$$$$
>  <Compound>
CCN(CC)CCOC(=O)C1(C2CCCCC2)CCCCC1 [DICYCLOMINE]

>  <Assay Value>
Compound NOT metabolized

$$$$
>  <Compound>
CCCCc1nc(Cl)c(CO)n1Cc1ccc(-c2ccccc2-c2nn[nH]n2)cc1 [LOSARTAN]

>  <Assay Value>
Compound NOT metabolized

$$$$
>  <Compound>
CN1CC(=O)N2[C@H](c3ccc4c(c3)OCO4)c3[nH]c4ccccc4c3C[C@@H]2C1=O

>  <Assay Value>
Compound NOT metabolized

$$$$
>  <Compound>
CN(C)CCc1c[nH]c2ccc(CS(=O)(=O)N3CCCC3)cc12 [ALMOTRIPTAN]

>  <Assay Value>
Compound NOT metabolized

$$$$
>  <Compound>
Br.CN(C)CCCC1(c2ccc(F)cc2)OCc2cc(C#N)ccc21 (stereo not given) [CITALOPRAM HYDROBROMIDE]

>  <Assay Value>
Compound NOT metabolized

$$$$
>  <Compound>
CC(=O)Nc1ccc(OC(C)=O)cc1 [DIACETAMATE]

>  <Assay Value>
Compound metabolized

$$$$
>  <Compound>
Cc1cc2c(cc1S(N)(=O)=O)S(=O)(=O)CCC2

>  <Assay Value>
Compound NOT metabolized

$$$$
>  <Compound>
C=CCN1CC[C@]23c4c5ccc(O)c4O[C@H]2C(=O)CC[C@@]3(O)[C@H]1C5 [NALOXONE]

>  <Assay Value>
Compound metabolized

$$$$
>  <Compound>
CN1CCC[C@@H]1CCO[C@](C)(c1ccccc1)c1ccc(Cl)cc1.O=C(O)/C=C/C(=O)O [CLEMASTINE FUMARATE]

>  <Assay Value>
Compound metabolized

$$$$
>  <Compound>
CSc1ccc2c(c1)C(N1CCN(C)CC1)Cc1ccccc1S2.O=C(O)/C=C\C(=O)O (stereo not given)

>  <Assay Value>
Compound NOT metabolized

$$$$
>  <Compound>
C[N+]12CCC(CC1)C(OC(=O)C(O)(c1ccccc1)c1ccccc1)C2.[Br-] (stereo not given) [CLIDINIUM BROMIDE]

>  <Assay Value>
Compound NOT metabolized

$$$$
>  <Compound>
CCCC(C)(COC(N)=O)COC(=O)NC(C)C (stereo not given) [CARISOPRODOL]

>  <Assay Value>
Compound metabolized

$$$$
>  <Compound>
CCc1oc2ccccc2c1C(=O)c1cc(Br)c(O)c(Br)c1 [BENZBROMARONE]

>  <Assay Value>
Compound NOT metabolized

$$$$
>  <Compound>
CN1CCOC(c2ccccc2)c2ccccc2C1 (stereo not given) [NEFOPAM]

>  <Assay Value>
Compound NOT metabolized

$$$$
>  <Compound>
CN(C)C(=O)Oc1cccc([N+](C)(C)C)c1.[Br-] [NEOSTIGMINE BROMIDE]

>  <Assay Value>
Compound metabolized

$$$$
